# EXPERIMENTAL_TARGET: T1, recombinant sCD4 comprising the full-length extracellular domain of human CD4 (human, UniProt P01730 26-396)
# T1 construct: also called human soluble CD4; human sCD4 protein
# PROTOCOL_NOTES: SPR (Biacore), antibody amine-coupled on the chip, human sCD4 as analyte, 25 C, 1:1 Langmuir fit
In this section we review reported Kd values for a set of binders.
Expressed in nM, but write only the number.

LM65, ibalizumab light chain mutant with an N-linked glycosylation site at position 65 (antibody, human IgG1, kappa, V domains shown) VH: QVQLQQSGPEVVKPGASVKMSCKASGYTFTSYVIHWVRQKPGQGLDWIGYINPYNDGTDYDEKFKGKATLTSDTSTSTAYMELSSLRSEDTAVYYCAREKDNYATGAWFAYWGQGTLVTVSS VL: DIVMTQSPDSLAVSLGERVTMNCKSSQSLLYSTNQKNYLAWYQQKPGQSPKLLIYWASTRESGVPDRFSGNATGTDFTLTISSVQAEDVAVYYCQQYYSYRTFGGGTKLEIKR; 1.5
LM54, ibalizumab light chain mutant with an N-linked glycosylation site at position 54 (antibody, human IgG1, kappa, V domains shown) VH: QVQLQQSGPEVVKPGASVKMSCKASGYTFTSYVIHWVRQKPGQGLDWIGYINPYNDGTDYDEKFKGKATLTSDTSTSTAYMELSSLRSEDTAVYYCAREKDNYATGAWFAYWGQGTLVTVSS VL: DIVMTQSPDSLAVSLGERVTMNCKSSQSLLYSTNQKNYLAWYQQKPGQSPKLLIYWASTNATGVPDRFSGSGSGTDFTLTISSVQAEDVAVYYCQQYYSYRTFGGGTKLEIKR; 0.73

Please find the next binder below.
Query: # lookup: Kd of LM30E, ibalizumab light chain mutant with an N-linked glycosylation site at position 30E (antibody, human IgG1, kappa, V domains shown) VH: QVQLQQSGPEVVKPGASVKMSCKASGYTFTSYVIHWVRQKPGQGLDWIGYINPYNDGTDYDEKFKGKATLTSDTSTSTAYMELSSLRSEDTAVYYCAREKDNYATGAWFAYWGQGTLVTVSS VL: DIVMTQSPDSLAVSLGERVTMNCKSSQSLLYSTNNATYLAWYQQKPGQSPKLLIYWASTRESGVPDRFSGSGSGTDFTLTISSVQAEDVAVYYCQQYYSYRTFGGGTKLEIKR
Result: 1.4
